- tgt: Sodium-dependent serotonin transporter (Homo sapiens, UniProt P31645)
- Sequence (P31645 whole entry): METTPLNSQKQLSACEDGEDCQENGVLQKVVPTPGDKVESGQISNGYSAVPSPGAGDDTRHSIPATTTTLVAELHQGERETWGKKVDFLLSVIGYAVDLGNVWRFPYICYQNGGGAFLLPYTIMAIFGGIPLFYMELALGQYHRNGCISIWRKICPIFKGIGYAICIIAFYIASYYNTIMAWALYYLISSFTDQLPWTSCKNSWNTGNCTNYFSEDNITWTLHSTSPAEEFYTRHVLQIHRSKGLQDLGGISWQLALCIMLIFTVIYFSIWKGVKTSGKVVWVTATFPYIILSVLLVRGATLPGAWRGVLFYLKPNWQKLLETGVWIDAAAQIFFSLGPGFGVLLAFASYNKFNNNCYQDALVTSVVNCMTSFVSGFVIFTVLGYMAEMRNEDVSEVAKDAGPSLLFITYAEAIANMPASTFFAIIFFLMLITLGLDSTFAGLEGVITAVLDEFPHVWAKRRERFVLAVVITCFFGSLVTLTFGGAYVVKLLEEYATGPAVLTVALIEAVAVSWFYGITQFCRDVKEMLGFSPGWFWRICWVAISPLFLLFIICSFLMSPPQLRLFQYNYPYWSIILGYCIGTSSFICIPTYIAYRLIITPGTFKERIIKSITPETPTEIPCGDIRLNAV
- assay summary: Inhibition of [3H]5-HT uptake at human 5HTT expressed in HEK293 cells
observed property: pEC50
By convention, pEC50 is the negative base-10 log of a molar concentration.

State pEC50 on Sodium-dependent serotonin transporter (Homo sapiens, UniProt P31645). Entry: `Fc1cccc(C2CCNCC2)c1Oc1ccccc1`
5.75

----------
- tgt: Sodium-dependent dopamine transporter (Homo sapiens, UniProt Q01959)
- Sequence (Q01959 whole entry): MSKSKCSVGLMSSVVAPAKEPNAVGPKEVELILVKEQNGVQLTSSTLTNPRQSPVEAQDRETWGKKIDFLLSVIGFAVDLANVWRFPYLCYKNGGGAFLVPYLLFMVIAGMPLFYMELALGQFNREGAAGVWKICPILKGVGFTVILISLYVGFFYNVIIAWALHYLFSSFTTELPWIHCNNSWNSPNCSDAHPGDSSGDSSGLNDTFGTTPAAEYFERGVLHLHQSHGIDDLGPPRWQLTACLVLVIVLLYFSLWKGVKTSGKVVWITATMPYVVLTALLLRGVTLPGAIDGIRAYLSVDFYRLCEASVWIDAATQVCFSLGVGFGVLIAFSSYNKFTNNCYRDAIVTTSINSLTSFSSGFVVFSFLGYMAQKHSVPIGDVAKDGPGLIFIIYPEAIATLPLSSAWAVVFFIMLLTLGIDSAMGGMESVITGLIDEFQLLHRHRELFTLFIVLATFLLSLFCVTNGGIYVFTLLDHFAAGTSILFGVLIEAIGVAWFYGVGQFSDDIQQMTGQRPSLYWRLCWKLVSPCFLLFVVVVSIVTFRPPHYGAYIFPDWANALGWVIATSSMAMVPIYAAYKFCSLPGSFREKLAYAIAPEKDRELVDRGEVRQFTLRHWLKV
- assay summary: Inhibition of dopamine uptake at human DAT expressed in HEK293 cells
observed property: EC50 (µM)
Give your result in µM as a bare value.

Let me know recorded EC50 for `Fc1cccc(C2CCNCC2)c1Oc1ccccc1` , thanks.
0.982

----------
- tgt: Sodium-dependent noradrenaline transporter (Homo sapiens)
- Sequence (P23975 whole entry): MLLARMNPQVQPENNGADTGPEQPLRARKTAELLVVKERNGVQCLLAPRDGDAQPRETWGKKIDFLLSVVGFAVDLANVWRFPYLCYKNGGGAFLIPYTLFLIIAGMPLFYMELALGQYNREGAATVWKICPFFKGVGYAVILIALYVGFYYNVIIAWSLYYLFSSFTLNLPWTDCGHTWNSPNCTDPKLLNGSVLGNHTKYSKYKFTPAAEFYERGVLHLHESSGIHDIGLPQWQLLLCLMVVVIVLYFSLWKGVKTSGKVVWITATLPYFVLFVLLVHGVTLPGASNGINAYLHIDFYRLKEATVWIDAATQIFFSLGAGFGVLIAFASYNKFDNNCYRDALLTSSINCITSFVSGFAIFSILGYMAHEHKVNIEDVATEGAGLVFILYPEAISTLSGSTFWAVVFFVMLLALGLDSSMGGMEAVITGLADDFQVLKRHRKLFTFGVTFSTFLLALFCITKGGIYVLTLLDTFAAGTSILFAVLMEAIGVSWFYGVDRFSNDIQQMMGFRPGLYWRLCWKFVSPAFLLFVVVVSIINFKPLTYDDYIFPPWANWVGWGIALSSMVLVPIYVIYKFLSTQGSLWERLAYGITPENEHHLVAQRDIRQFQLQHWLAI
pKi: −log10 of the molar value.
Use 7 as the dividing line for pKi, with the line itself on the rule met side and lower values as rule not met.

Can `c1ccc(Oc2ccccc2N2CCNCC2)cc1` be said to have pKi at or above 7?
rule not met

Decide: pKi of `Fc1ccc(OCc2ccc(Cl)c(Cl)c2)c(C2CCNCC2)c1` >= 7?
rule met

I'd appreciate it if you could say whether `Fc1cccc(C2CCNCC2)c1OCc1ccccc1` has pKi at least equal to 7.
rule met

Is it the case that `c1ccc(Oc2ccccc2C2CCNCC2)cc1` has pKi reaching or exceeding 7?
rule not met

Entry `Fc1ccccc1COc1ccccc1N1CCNCC1` : is its pKi no less than 7?
rule not met

----------
Record set of Ki for target or system Sodium-dependent serotonin transporter (Homo sapiens).
Quick reminder: number only, in nM, skip the unit.

Note Ki for the compound shown: `Cc1ccc(F)c(Oc2ccccc2C2CCNCC2)c1`
26

Indicate its recorded Ki; the compound in question is `c1ccc(OCc2ccccc2N2CCNCC2)cc1`
780

Look up Ki of `Fc1ccccc1COc1ccccc1N1CCNCC1` and report it.
978

Return reported Ki. Input compound: `Fc1cccc(C2CCNCC2)c1Oc1ccccc1`
2330

Return the recorded Ki value; entry: `Fc1cccc(OCc2ccccc2N2CCNCC2)c1`
17

Give the reported value of Ki for this record: `c1ccc(OCc2ccccc2C2CCNCC2)cc1`
364

Tell us which Ki value is on record for `Fc1cccc(Oc2ccccc2)c1C1CCNCC1`
706

----------
I'd be grateful if you could share measured pEC50 for these entries.
- tgt: 5-hydroxytryptamine receptor 1A (Homo sapiens)
- assay summary: Partial agonist activity at human 5HT1A expressed in HEK293 cells by FLIPR assay
In simple prose, pEC50 is minus the logarithm base ten of a concentration in moles per litre.

Complete the entry with pEC50 for `Fc1cccc(C2CCNCC2)c1Oc1ccccc1`
6.06

State, in one line, measured pEC50 of `Fc1cccc(Oc2cccc(F)c2C2CCNCC2)c1`
6.86

Output measured pEC50 for this item: `Clc1cccc(Oc2ccccc2C2CCNCC2)c1`
5.94

----------
Assignment: determine reported pKi for the given compounds.
- tgt: UniProt P08908
- Sequence (P08908 whole entry): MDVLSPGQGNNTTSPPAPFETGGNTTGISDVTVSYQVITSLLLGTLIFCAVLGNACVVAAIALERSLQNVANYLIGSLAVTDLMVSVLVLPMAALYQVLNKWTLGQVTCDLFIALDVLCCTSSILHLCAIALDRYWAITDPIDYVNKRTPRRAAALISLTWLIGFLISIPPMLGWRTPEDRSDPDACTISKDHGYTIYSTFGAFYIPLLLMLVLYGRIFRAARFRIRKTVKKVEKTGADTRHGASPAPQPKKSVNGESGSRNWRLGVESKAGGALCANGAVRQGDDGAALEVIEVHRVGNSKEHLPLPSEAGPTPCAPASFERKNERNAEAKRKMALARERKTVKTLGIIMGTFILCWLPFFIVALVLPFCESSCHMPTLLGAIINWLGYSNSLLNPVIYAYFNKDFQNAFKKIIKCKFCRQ
pKi: −log10 of the molar value.

Supply pKi measured with UniProt P08908 for `c1ccc(OCc2ccccc2C2CCNCC2)cc1` .
< 6.00

Write pKi of `Cc1ccc(C2CCNCC2)c(Oc2cccc(F)c2)c1` ; system used: UniProt P08908
< 5.34

Name the recorded pKi of `Cc1ccc(C2CCNCC2)c(Oc2ccc(F)cc2)c1` , assay system UniProt P08908.
< 5.34
